# Subject Of Test: T1, soluble FGFR4 receptor protein (human, UniProt P22455 144-369)
# T1 sequence: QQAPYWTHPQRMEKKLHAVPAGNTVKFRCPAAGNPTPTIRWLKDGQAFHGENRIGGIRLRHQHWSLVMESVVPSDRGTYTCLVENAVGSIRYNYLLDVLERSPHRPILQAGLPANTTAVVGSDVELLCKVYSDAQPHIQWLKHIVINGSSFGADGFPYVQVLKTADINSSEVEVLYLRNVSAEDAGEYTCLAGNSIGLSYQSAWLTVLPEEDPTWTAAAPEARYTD
# Experiment Notes: BLI Octet RED96, antibody on anti-hIgG Fc tip
koff for assorted binders
Report the figure in s⁻¹ without appending any unit label.

Before answering, review these 2 worked examples.
- Binder: "Ab19 (antibody, human IgG2, kappa, V domains shown, format in the assays not spelled out) VH: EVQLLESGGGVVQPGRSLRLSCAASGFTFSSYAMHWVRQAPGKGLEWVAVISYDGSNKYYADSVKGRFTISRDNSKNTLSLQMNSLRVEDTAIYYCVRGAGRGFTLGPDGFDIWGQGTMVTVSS VL: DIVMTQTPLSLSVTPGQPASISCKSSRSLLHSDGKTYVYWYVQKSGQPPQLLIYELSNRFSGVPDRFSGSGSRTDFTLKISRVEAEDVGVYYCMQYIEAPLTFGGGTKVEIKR"
  koff, s⁻¹: 0.0012
- Binder: "Vk5 combined with the VH of Ab15 (antibody, V domains shown, captured on anti-human IgG Fc tips) VH: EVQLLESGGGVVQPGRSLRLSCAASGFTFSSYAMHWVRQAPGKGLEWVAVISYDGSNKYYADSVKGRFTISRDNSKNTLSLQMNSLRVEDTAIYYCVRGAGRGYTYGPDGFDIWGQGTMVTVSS VL: DIVMTQTPLSLSVTPGQPASISCRSSRSLLHSDGKTYVYWYLQKPGQPPQLLIYELSNRFSGVPDRFSGSGSGTDFTLKISRVEAEDVGVYYCMQYIEAPLTFGGGTKVEIK"
  koff, s⁻¹: 0.000752

Now turn to the next binder.
Per the records, this binder ( Ab92 (antibody, human IgG2, kappa, V domains shown, format in the assays not spelled out) VH: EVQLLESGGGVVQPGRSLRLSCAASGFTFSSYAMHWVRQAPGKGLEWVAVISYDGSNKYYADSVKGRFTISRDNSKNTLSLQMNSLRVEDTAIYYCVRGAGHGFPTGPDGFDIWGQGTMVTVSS VL: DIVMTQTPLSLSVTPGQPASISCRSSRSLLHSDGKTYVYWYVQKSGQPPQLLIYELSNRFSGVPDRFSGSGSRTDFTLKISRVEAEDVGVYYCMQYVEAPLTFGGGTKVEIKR ) has koff equal to 0.00248

The reported measurements were obtained from patent US20180244785A1.
